assay: Compound was tested for its ability to displace [3H]WB-4101 form alpha-1 adrenergic receptor site in guinea pig cerebral cortical membranes.; design: species or system Cavia porcellus
pKi: −log10 of the molar value.
Listed next: entries and their corresponding pKi.
measure-name: pKi

> print(dat)
                          compound  test.value
1    CNCC(O)c1cccc(O)c1F (racemic)        5.18
2  CNCC(O)c1ccc(F)c(O)c1 (racemic)        5.43
3    CNCC(O)c1cc(O)ccc1F (racemic)        5.89
4           CNC[C@H](O)c1cccc(O)c1        5.60
